Quick reference: TGI of the listed items.
System: RXF 393 renal
Assay: NCI tumour cell line growth inhibition, 48 h
REPORTED_METRIC: TGI (µM)

> print(dat)
                                    molecule  units.symbol  reading.qualifier  reading
 1  Cc1cc(C(=O)c2ccccc2)c(C)c2c1[nH]c1ccc(Cl)cc12            µM                  =   0.0771
 2  COc1cc(CS(=O)c2ccc(O)cc2)cc(OC)c1OC (stereo not given)            µM                  >      100
 3  COC1OC2=CCC3C(=O)NC(=O)C3C2[C@H](OCc2ccccc2)C1OCc1ccccc1 (stereo not given in full)            µM                  =     2.99
 4  CN(Cc1cc(Cl)c(Cl)cc1NC(=O)CN)[C@H]1CCCC[C@@H]1N1CCCC1            µM                  >      100
 5               C/C(=N\NC(=S)N(C)C)c1ccccn1            µM                  =     13.4
 6  COC(=O)C(NC(=O)c1ccccc1)C(c1ccc(Cl)cc1)P(=O)(OC)OC (stereo not given)            µM                  >      100
 7                  CC(=O)c1cc(O)c2ccccc2c1O            µM                  =     33.8
 8  C[C@H]1COC2=C1C(=O)C(=O)c1c2ccc2c1CCCC2(C)C            µM                  =     55.6
 9  OC(CC(O)(C(F)(F)F)C(F)(F)F)c1ccc(C(O)CC(O)(C(F)(F)F)C(F)(F)F)cc1 (stereo not given)            µM                  =     30.7
10  O=C(N/N=C/c1cc(Br)cc(Br)c1[O-])c1ccccc1O.O=C(N/N=C/c1cc(Br)cc(Br)c1[O-])c1ccccc1O.[Ni+2]            µM                  =     2.62
